# Tested on: HT-22
# PROCEDURE_SUMMARY: Neuroprotective activity against glutamate-induced excitotoxicity in mouse HT-22 cells assessed as cell viability at 0.1 uM preincubated for 4 hrs followed by glutamate treatment for 24 hrs by CCK8 assay (reference value: 30.31 +/- 2.02 %)
# Format: functional
# DETAILS: time 28 hrs, read-out: Activity
Hi! Could you tag entries with viability at 0.1 µM below 40% as yes (1), and those at or above as no (0)? Much appreciated.

These solved cases illustrate the format of a correct answer.
{"columns": ["MOLECULE", "QUALITATIVE_LABEL"],
 "data": [
  ["O=C(/C=C/C=C/c1ccc2c(c1)OCO2)N1CCCCC1", "yes (1)"],
  ["COc1cc(/C=C/C(=O)NCC(O)c2ccc(O)cc2)ccc1O (centres undefined)", "no (0)"],
  ["COc1cc(CNC(=O)CCCCCCC(C)C)ccc1O [DIHYDROCAPSAICIN]", "yes (1)"],
  ["COc1cc(CCC(=O)CC(O)CCc2ccc(O)c(OC)c2)ccc1O (centres undefined) [HEXAHYDROCURCUMIN]", "no (0)"],
  ["N[C@@H](CC(=O)N1CCn2c(nnc2C(F)(F)F)C1)Cc1cc(F)c(F)cc1F", "yes (1)"],
  ["C=CCN1C[C@H](C(=O)N(CCCN(C)C)C(=O)NCC)C[C@@H]2c3cccc4[nH]cc(c34)C[C@H]21", "yes (1)"]
]}

## Input # check: viability at 0.1 µM < 40% for COc1cc(OC/C=C(\C)CCC=C(C)C)c2ccc(=O)oc2c1
## Output yes (1)

## Input # check: viability at 0.1 µM < 40% for COC(=O)[C@@H](Cc1ccc(O)c(O)c1)OC(=O)/C=C/c1ccc(O)c(O)c1 [METHYL ROSMARINATE]
## Output no (0)

###

Form field: viability at 4 h, 10 µM (one value per entry).
# PROCEDURE_SUMMARY: Cytotoxicity against rat PC12 cells assessed as cell viability at 10 uM incubated for 4 hrs by CCK8 assay relative to control
# Assay type: toxicity, cell-based, PC-12
# DETAILS: read-out: Activity
Numeric only. Scale: %

## Input # get_value(readout='viability at 4 h, 10 µM', item= COC(=O)[C@@H](Cc1ccc(O)c(O)c1)OC(=O)/C=C/c1ccc(O)c(O)c1 [METHYL ROSMARINATE] )
## Output 69.6

## Input # get_value(readout='viability at 4 h, 10 µM', item= C=CCN1C[C@H](C(=O)N(CCCN(C)C)C(=O)NCC)C[C@@H]2c3cccc4[nH]cc(c34)C[C@H]21 )
## Output 94.8

## Input # get_value(readout='viability at 4 h, 10 µM', item= COCCCOc1ccnc(C[S+]([O-])c2nc3ccccc3[nH]2)c1C (centres undefined) )
## Output 93.2

## Input # get_value(readout='viability at 4 h, 10 µM', item= COc1cc(OC/C=C(\C)CCC=C(C)C)c2ccc(=O)oc2c1 )
## Output 74.7

## Input # get_value(readout='viability at 4 h, 10 µM', item= COc1cc(CCC(=O)CC(O)CCc2ccc(O)c(OC)c2)ccc1O (centres undefined) [HEXAHYDROCURCUMIN] )
## Output 73.3

## Input # get_value(readout='viability at 4 h, 10 µM', item= COc1cc(CNC(=O)CCCCCCC(C)C)ccc1O [DIHYDROCAPSAICIN] )
## Output 104

## Input # get_value(readout='viability at 4 h, 10 µM', item= O=C(/C=C/C=C/c1ccc2c(c1)OCO2)N1CCCCC1 )
## Output 98.3

## Input # get_value(readout='viability at 4 h, 10 µM', item= N[C@@H](CC(=O)N1CCn2c(nnc2C(F)(F)F)C1)Cc1cc(F)c(F)cc1F )
## Output 95.5

## Input # get_value(readout='viability at 4 h, 10 µM', item= COc1cc(/C=C/C(=O)NCC(O)c2ccc(O)cc2)ccc1O (centres undefined) )
## Output 96.6

###

# Tested on: PC-12
# PROCEDURE_SUMMARY: Neuroprotective activity against glutamate-induced excitotoxicity in rat PC12 cells assessed as cell viability at 0.1 uM preincubated for 4 hrs followed by glutamate treatment for 24 hrs by CCK8 assay (reference value: 44.89 +/- 2.08 %)
# Type: functional
# DETAILS: time 28 hrs, read-out: Activity
Form field: viability at 0.1 µM (one value per entry).
Numeric only. Scale: %

Sample answers from the record:
{"columns": ["MOLECULE", "viability at 0.1 µM / %"],
 "data": [
  ["C=CCN1C[C@H](C(=O)N(CCCN(C)C)C(=O)NCC)C[C@@H]2c3cccc4[nH]cc(c34)C[C@H]21 [CABERGOLINE]", 63.9],
  ["COc1cc(OC/C=C(\\C)CCC=C(C)C)c2ccc(=O)oc2c1", 67.4],
  ["N[C@@H](CC(=O)N1CCn2c(nnc2C(F)(F)F)C1)Cc1cc(F)c(F)cc1F [SITAGLIPTIN]", 62.6]
]}

## Input What viability at 0.1 µM appears in the records for this molecule with PC-12? COC(=O)[C@@H](Cc1ccc(O)c(O)c1)OC(=O)/C=C/c1ccc(O)c(O)c1 [METHYL ROSMARINATE]
## Output 74.1

###

# Tested on: PC-12
# PROCEDURE_SUMMARY: Neuroprotective activity against glutamate-induced excitotoxicity in rat PC12 cells assessed as cell viability at 1 uM preincubated for 4 hrs followed by glutamate treatment for 24 hrs by CCK8 assay (reference value: 43.19 +/- 2.98 %)
# Format: functional
# DETAILS: time 28 hrs, read-out: Activity
Hi! Could you tag entries with viability at 1 µM below 70% as True, and those at or above as False? Much appreciated.

{"columns": ["COMPOUND", "QUALITATIVE_LABEL"],
 "data": [
  ["COc1cc(CNC(=O)CCCCCCC(C)C)ccc1O [DIHYDROCAPSAICIN]", "False"]
]}

## Input # check: viability at 1 µM < 70% for COC(=O)[C@@H](Cc1ccc(O)c(O)c1)OC(=O)/C=C/c1ccc(O)c(O)c1 [METHYL ROSMARINATE]
## Output False

## Input # check: viability at 1 µM < 70% for COc1cc(CCC(=O)CC(O)CCc2ccc(O)c(OC)c2)ccc1O (centres undefined) [HEXAHYDROCURCUMIN]
## Output True

###

# System: PC-12
# PROCEDURE_SUMMARY: Neuroprotective activity against glutamate-induced excitotoxicity in rat PC12 cells assessed as cell viability at 0.1 uM preincubated for 4 hrs followed by glutamate treatment for 24 hrs by CCK8 assay (reference value: 44.89 +/- 2.08 %)
# Assay type: functional
# DETAILS: time 28 hrs, read-out: Activity
MEASURED_PROPERTY: viability at 0.1 µM (%)
Numeric only. Scale: %

{"columns": ["COMPOUND", "UNIT_SYMBOL", "viability at 0.1 µM"],
 "data": [
  ["O=C(/C=C/C=C/c1ccc2c(c1)OCO2)N1CCCCC1 [PIPERINE]", "%", 66.2]
]}

Attention now shifts to the item below.
## Input # get_value(readout='viability at 0.1 µM', item= COc1cc(CCC(=O)CC(O)CCc2ccc(O)c(OC)c2)ccc1O (stereo not given) [HEXAHYDROCURCUMIN] )
## Output 66

###

# System: PC-12
# PROCEDURE_SUMMARY: Neuroprotective activity against glutamate-induced excitotoxicity in rat PC12 cells assessed as cell viability at 1 uM preincubated for 4 hrs followed by glutamate treatment for 24 hrs by CCK8 assay (reference value: 43.19 +/- 2.98 %)
# Type: functional
# DETAILS: time 28 hrs, read-out: Activity
Form field: viability at 1 µM (one value per entry).
Numeric only. Scale: %

Sample answers from the record:
{"columns": ["MOLECULE", "viability at 1 µM, %"],
 "data": [
  ["COc1cc(OC/C=C(\\C)CCC=C(C)C)c2ccc(=O)oc2c1", 69],
  ["COc1cc(/C=C/C(=O)NCC(O)c2ccc(O)cc2)ccc1O (stereo unspecified)", 66.5],
  ["N[C@@H](CC(=O)N1CCn2c(nnc2C(F)(F)F)C1)Cc1cc(F)c(F)cc1F", 69.5],
  ["C=CCN1C[C@H](C(=O)N(CCCN(C)C)C(=O)NCC)C[C@@H]2c3cccc4[nH]cc(c34)C[C@H]21", 68.2],
  ["O=C(/C=C/C=C/c1ccc2c(c1)OCO2)N1CCCCC1", 57.3]
]}

Attention now shifts to the item below.
## Input # get_value(readout='viability at 1 µM', item= COCCCOc1ccnc(C[S+]([O-])c2nc3ccccc3[nH]2)c1C (stereo unspecified) )
## Output 66.7

###

Form field: viability at 0.1 µM (one value per entry).
# Tested on: PC-12
# PROCEDURE_SUMMARY: Neuroprotective activity against glutamate-induced excitotoxicity in rat PC12 cells assessed as cell viability at 0.1 uM preincubated for 4 hrs followed by glutamate treatment for 24 hrs by CCK8 assay (reference value: 44.89 +/- 2.08 %)
# Type: functional
# DETAILS: time 28 hrs, read-out: Activity
Provide a numeric answer, followed by its unit.

Sample answers from the record:
{"columns": ["MOLECULE", "MEASURED_PROPERTY", "RESULT"],
 "data": [
  ["COc1cc(/C=C/C(=O)NCC(O)c2ccc(O)cc2)ccc1O (stereo not drawn)", "viability at 0.1 µM", "64.2%"],
  ["COCCCOc1ccnc(C[S+]([O-])c2nc3ccccc3[nH]2)c1C (stereo not drawn)", "viability at 0.1 µM", "64.7%"]
]}

Attention now shifts to the item below.
## Input What viability at 0.1 µM appears in the records for this molecule with PC-12? COc1cc(CNC(=O)CCCCCCC(C)C)ccc1O [DIHYDROCAPSAICIN]
## Output 66.1%
